The measured values listed here are drawn from paper PMC8704709.

- Test system: DU145 prostate carcinoma cells
- ASSAY_COMMENT: Antiproliferative activity assay (crystal violet staining)
- Format: cell-based
- MEASUREMENT_CONDITIONS: Homo sapiens, DU-145, as determined after 48 h, means ± SEM, n ≥ 3, read-out: Growth inhibitory activity IC50, DU145
pIC50: −log10 of the molar value.
MEASURED_QUANTITY: pIC50

[[record]]
compound = "O=C(CCCCCCC(=O)Nc1ccc(S(F)(F)(F)(F)F)cc1)NO [SF5-SAHA]"
measured_quantity = "pIC50"
measured_number = 6.14


###

- Test system: SMZ1 cells
- ASSAY_COMMENT: IC50 by Annexin-V/7AAD dual staining, flow cytometry
- Format: cell-based
- MEASUREMENT_CONDITIONS: Homo sapiens, as determined after 48 h, means ± SEM, n ≥ 3, read-out: Growth inhibitory activity IC50, SMZ1
- Description: Stock solutions (10 mM) prepared by dissolution in DMSO were stored at −20 °C. Working solutions were always freshly prepared before each experiment by dilution of stock solution with medium. The final DMSO concentration never exceeded 0.25%. Treatment-induced changes in cell number were determined by crystal violet (N-hexamethylpararosaniline from Sigma Aldrich) staining. […] For T-cell leukemia/lymphoma cell lines apoptosis was determined using dual staining for Annexin-V and 7AAD via flow cytometry.
MEASURED_QUANTITY: IC50 (µM)

[[record]]
molecule = "O=C(CCCCCCC(=O)Nc1ccccc1)NO [SAHA, suberoylanilide hydroxamic acid, reference compound]"
test_target = "SMZ1 cells"
measured_number = 2.87

[[record]]
molecule = "O=C(CCCCCCC(=O)Nc1ccc(S(F)(F)(F)(F)F)cc1)NO"
test_target = "SMZ1 cells"
measured_number = 1.58

